So I've got a bunch of compounds here, and I need their normalized growth values.
assay: chemical genetic growth profiling, strain panel (AID 1159580);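 further: tested at 20 µM; growth read once vehicle control cultures reached saturation at 30 °C; 1 = growth at the plate median or of vehicle wells; lower values mean less growth of the strain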; conditions: S. cerevisiae deletion strains, growth OD, locus YLL001W, strain dnm1, hits give low values
The whole screen tested about 5,500 compounds, of which about 2,000 (36%) were called active. Inconclusive results (about 18%) are left out. The list shows a part of the results.
Give bare numbers.

Worked set:
| compound | normalized growth |
| --- | --- |
| COc1ccc(-c2oc3cc(OC)c(OC)c(OC)c3c(=O)c2OC)cc1OC | 1 |
| NCCCCCC(=O)O | 1 |

Value sought for every listed compound: normalized growth.
1. COc1ccnc(CS(=O)c2nc3ccc(OC(F)F)cc3[nH]2)c1OC (centres undefined)
2. NC1(C(=O)O)CCCC1
3. C=NC(C(=O)NC1C(=O)N2C1SC(C)(C)C2C(=O)O)c1ccccc1 (centres undefined)
4. NCCCNCCSP(=O)(O)O
5. COP(=S)(OC)Oc1ccc([N+](=O)[O-])cc1
6. NCCCCC(=O)O
7. NCC[C@@H](O)C(=O)N[C@@H]1C[C@H](N)[C@@H](O[C@H]2O[C@H](CN)[C@@H](O)[C@H](O)[C@H]2O)[C@H](O)[C@H]1O[C@H]1O[C@H](CO)[C@@H](O)[C@H](N)C1O (some centres undefined)

1. 0.98
2. 1.03
3. 0.943
4. 0.954
5. 0.995
6. 1.01
7. 1.02

Value sought for every listed compound: normalized growth.
1. C=C1C(=O)[C@]23[C@H](O)[C@H]1CC[C@H]2[C@@]12CO[C@]3(O)[C@H](O)[C@@H]1C(C)(C)CC[C@@H]2O
2. C[C@]12CCC3c4ccc(O)cc4CCC3C1CCC2=O (some centres undefined)
3. Cc1cc(/C=C/c2ccc3cc(N(C)C)ccc3[n+]2C)c(C)n1-c1ccccc1
4. CC12CCC3C(=CCc4cc(O)ccc43)C1CCC2=O (centres undefined)
5. CN1CCC[C@@H]1CCO[C@](C)(c1ccccc1)c1ccc(Cl)cc1

1. 1
2. 1.05
3. 0.934
4. 0.94
5. 0.946

====

experiment: chemical genetic growth profiling, strain panel (AID 1159580); conditions: S. cerevisiae deletion strains, growth OD, locus YKL085W, strain MDH1, hits give low values
In all, about 5,500 compounds went through this assay and about 2,000 (36%) were called active. About 18% were inconclusive and are not listed. The list shows a part of the results.
measuredParameter: normalized growth
Give bare numbers.

Worked set:
| molecule | normalized growth |
| --- | --- |
| CC(=O)O[C@H]1C[C@@H](OC(C)=O)C(C)(C)C2C[C@@H](O)[C@]3(C)C(CC[C@@]4(C)[C@H](c5ccoc5)OC(=O)[C@H]5O[C@]543)[C@]21C (stereo partly drawn) | 0.987 |
| O=C(O)C(O)C(O)C(=O)O (stereo not drawn) | 0.986 |

Moving on to another molecule below.
Find the recorded normalized growth belonging to O=C(O)CCC1NCC2CC1CN1CCCCC21 (stereo not drawn) and report it.
1.02

====

test: chemical genetic growth profiling, strain panel (AID 1159580); conditions: S. cerevisiae deletion strains, growth OD, locus YDL074C, strain BRE1
Out of some 5,500 compounds screened, about 2,000 (36%) were called active. Roughly 18% stayed inconclusive and do not appear here. Cut-off read from the data, not from the text of the source: active = normalized growth mostly below about 0.91 (no sharp cut-off); inconclusive = no clear call, values can overlap the other calls; inactive = mostly above about 0.92. This is one part of the list.
Answer with one of the outcomes given here: active, inactive

See these solved cases before continuing.
| molecule | class |
| --- | --- |
| C[C@]12CCC3C(CC[C@H]4C[C@@H](O)CC[C@]34C)C1CC[C@@H]2O (some centres undefined) | inactive |
| COC(=O)/C(C)=C\CC12OC(C)(C)C3CC(C=C4C(=O)c5c(OC)c6c(c(CC=C(C)C)c5OC431)OC(C)(CCC=C(C)C)C=C6)C2=O (centres undefined) | inactive |
| NC(=O)NC1NC(=O)NC1=O (centres undefined) | inactive |

Write down the call the test reported for this molecule. Item: NCC[C@@H](O)C(=O)N[C@@H]1C[C@H](N)[C@@H](O[C@H]2O[C@H](CN)[C@@H](O)[C@H](O)[C@H]2O)[C@H](O)[C@H]1O[C@H]1O[C@H](CO)[C@@H](O)[C@H](N)C1O (some centres undefined)
inactive

Write down the call the test reported for this molecule. Item: CCCCCCCCCCCCCC(=O)OC1C(C)C2(O)C(C=C(CO)CC3(O)C(=O)C(C)=CC32)C2C(C)(C)C12OC(C)=O (centres undefined)
inactive

Write down the call the test reported for this molecule. Item: "Cc1oncc1C(=O)Nc1ccc(C(F)(F)F)cc1"
inactive

Write down the call the test reported for this molecule. Item: CCC(C)C(=O)c1c(O)c(C)c2oc3c(C)c(O)c(C(=O)C(C)CC)c(O)c3c2c1O (centres undefined)
inactive

Write down the call the test reported for this molecule. Item: "CC(=O)N[C@@H](CCC(=O)O)C(=O)O"
inactive

Write down the call the test reported for this molecule. Item: "COc1cc(OC)c2c(=O)cc(-c3ccccc3)oc2c1"
active

====

assay: chemical genetic growth profiling, strain panel (AID 1159580);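 further: tested at 20 µM; growth read once vehicle control cultures reached saturation at 30 °C; 1 = growth at the plate median or of vehicle wells; lower values mean less growth of the strain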; details: S. cerevisiae deletion strains, growth OD, locus YMR219W, strain ESC1
Out of some 5,500 compounds screened, about 2,000 (36%) were called active. Another 18% or so got no clear call; they are omitted. Cut-off read from the data, not from the text of the source: active = normalized growth mostly below about 0.91 (no sharp cut-off); inconclusive = no clear call, values can overlap the other calls; inactive = mostly above about 0.92. This is one part of the list.
Answer with one of the outcomes given here: active, inactive

See these solved cases before continuing.
| molecule | class |
| --- | --- |
| N#Cc1cccc(CSC2=NCN(C3CC3)CN2)c1 | inactive |
| CC(=O)NC(CCC(=O)O)C(=O)O (stereo not drawn) | inactive |
| CCOC(=O)c1ccc(Oc2sccc2[N+](=O)[O-])cc1 | active |
| O=S(=O)(NCc1ccc(F)cc1F)c1cccc(C(F)(F)F)c1 | inactive |
| NC(N)=NC(N)=Nc1ccccc1C(F)(F)F | inactive |

Write down the call the test reported for this molecule. Item: "c1ccc(-c2csc(-c3cccnc3)n2)cc1"
active

Write down the call the test reported for this molecule. Item: "Cc1nn(Cc2ccccc2Cl)c(=N)s1"
inactive

Write down the call the test reported for this molecule. Item: "O=C(CN1CCOCC1)Nc1cc(C(F)(F)F)cc(C(F)(F)F)c1"
inactive

Write down the call the test reported for this molecule. Item: "CC(C)(C)NC(=S)NC1CCN(Cc2ccccc2)CC1"
inactive

Write down the call the test reported for this molecule. Item: CCOC(=O)C(c1ccccc1)C(Nc1ccc(Cl)c(Cl)c1)c1ccccn1 (stereo not drawn)
inactive

====

experiment: chemical genetic growth profiling, strain panel (AID 1159580);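 further: tested at 20 µM; growth read once vehicle control cultures reached saturation at 30 °C; 1 = growth at the plate median or of vehicle wells; lower values mean less growth of the strain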; conditions: S. cerevisiae deletion strains, growth OD, locus YBR021W, strain FUR4, hits give low values
Out of some 5,500 compounds screened, about 2,000 (36%) were called active. Roughly 18% stayed inconclusive and do not appear here. The list shows a part of the results.
measuredParameter: normalized growth
Answers are plain numbers.

Worked set:
| compound | normalized growth |
| --- | --- |
| C[C@]12CCC3c4ccc(OC(=O)CCC(=O)O)cc4CCC3C1CCC2=O (some centres not stated) | 0.85 |
| C[C@]12CCC3c4ccc(O)cc4CCC3C1CCC2=O (some centres not stated) | 0.875 |
| NC1(C(=O)O)CCCC1 | 0.989 |
| CC(=O)OC1CC(OC(C)=O)C2(C)C(CC(OC(C)=O)C3(C)C2CCC2(C)C(c4ccoc4)OC(=O)C4OC423)C1(C)C (configuration not stated) | 0.986 |
| CC(=O)O[C@H]1C[C@@H](OC(C)=O)C(C)(C)C2C[C@@H](OC(C)=O)[C@]3(C)C(CC[C@@]4(C)[C@H](c5ccoc5)OC(=O)[C@H]5O[C@]543)[C@]21C (some centres not stated) | 0.969 |
| CNc1ccc(C(=O)CC(O)CCC(C)C2OC(=O)CC(O)CC(=O)CC(O)CC(O)CC(O)CC(O)CC3(O)CC(O)C(C(=O)OC)C(CC(OC4OC(C)C(O)C(N)C4O)/C=C/C=C/C=C/C=C/C=C/C=C/C=C/C2C)O3)cc1 (configuration not stated) | 0.0931 |

Moving on to another compound below.
Find the recorded normalized growth belonging to CC(=O)Oc1ccc2c(c1)CCC1C2CC[C@]2(C)C(=O)CCC12 (some centres not stated) and report it.
0.961

====

assay: chemical genetic growth profiling, strain panel (AID 1159580);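 further: tested at 20 µM; growth read once vehicle control cultures reached saturation at 30 °C; 1 = growth at the plate median or of vehicle wells; lower values mean less growth of the strain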; settings: S. cerevisiae deletion strains, growth OD, locus YGL240W, strain doc1
Screen size: about 5,500 compounds; about 2,000 (36%) were called active. Roughly 18% stayed inconclusive and do not appear here. Rule as the data show it: active = normalized growth mostly below about 0.91 (no sharp cut-off); inconclusive = no clear call, values can overlap the other calls; inactive = mostly above about 0.92. This is one part of the list.
Answer with one of the outcomes given here: active, inactive

| compound | class |
| --- | --- |
| COP(=S)(OC)Oc1ccc(Sc2ccc(OP(=S)(OC)OC)cc2)cc1 | inactive |
| C[C@@H]1CC[C@H]2C(C)(C)C3CC12CC[C@@]3(C)O (some centres not stated) | active |

Write down the call the test reported for this compound. Item: COC(=O)C1=COC(C)C2CN3CCC4(C(=O)Nc5ccccc54)C3CC12 (configuration not stated)
inactive

Write down the call the test reported for this compound. Item: "Clc1ccccc1CN1CCc2sccc2C1"
inactive

Write down the call the test reported for this compound. Item: "C[C@H]1C[C@@H](O)[C@]2(O)[C@@]13CC(=O)OC[C@@]2(C)[C@](C)(O)C(=O)C3"
inactive

Write down the call the test reported for this compound. Item: "NCCCNCCSP(=O)(O)O"
inactive

Write down the call the test reported for this compound. Item: "COC(=O)[C@H](c1ccccc1Cl)N1CCc2sccc2C1"
inactive

Entry source: PubChem BioAssay AID1159580
